Observed MIC for Escherichia coli ATCC 2592, reported per entry below.
recordedEndpoint: MIC (µg/mL)

In [3]: df
Out[3]:
                                   compound  assayresult
0  Cc1ccc2oc(=O)c3c(c2c1)OC(N)=C(C#N)C3c1ccco1 (racemic) [2b]         1000
1  O=C(O)c1cn(C2CC2)c2cc(N3CCNCC3)c(F)cc2c1=O [Ciprofloxacin, reference compound]          125
2  O=c1oc2ccc(Cl)cc2c(O)c1S(=O)(=O)Nc1ccc(S(=O)(=O)Nc2ncccn2)cc1 [7c]          125
3  COc1cc(/C=N/C2=C(C#N)C(c3ccc([N+](=O)[O-])cc3)c3c(c4cc(C)ccc4oc3=O)O2)cc(OC)c1OC (racemic) [5c]          500
